All figures here come from patent US20110064679A1.

Test: in vivo
Details: male, C57BL/6, mouse, in vivo, po
property: LD50 at 8 h

>>> observed_result("O=C(O)CC(=O)C(=O)O [Oxaloacetic Acid]")
"> 5000 mg/kg"
